# Tested on: p38-gamma
# Construct: gene MAPK12
# measurement.conditions: concentration: 1 μM, replicates: in singlicate; n = 1;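 note: KINOMEscan kinase panel screen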
Binary call on %Inh with cut-off 30%: strictly below means YES, and equality or higher means NO.

Task: Is 30% strictly greater than the compound's reported %Inh? compound: `FC(F)(F)c1ccc(-c2nn3ncccc3c2-c2ccnc(Nc3cccc(C(F)(F)F)c3)n2)cc1`
Output: NO

Task: Is 30% strictly greater than the compound's reported %Inh? compound: `CC(C)N1CCC(n2cnc(-c3ccc(F)cc3)c2-c2ccnc(N)n2)CC1`
Output: NO

Task: Is 30% strictly greater than the compound's reported %Inh? compound: `CN1c2ccc(-c3ccc(C(=O)NCCO)cc3)cc2-c2[nH]ncc2S1(=O)=O`
Output: YES

Task: Is 30% strictly greater than the compound's reported %Inh? compound: `COc1cc2c(Nc3cccc(NC(=O)c4ccccc4)c3)ncnc2cc1OCCCN1CCOCC1`
Output: YES

Task: Is 30% strictly greater than the compound's reported %Inh? compound: `Cc1ccc(O)cc1Nc1cc(C(F)(F)F)nc2ccc(-c3ccncc3)cc12`
Output: NO

Task: Is 30% strictly greater than the compound's reported %Inh? compound: `CCc1nc(-c2cccc(C)c2)c(-c2ccnc(NC(=O)c3ccccc3)c2)s1`
Output: NO

Task: Is 30% strictly greater than the compound's reported %Inh? compound: `OCCOCCn1ccc2ncnc(Nc3ccc(Oc4cccc(Cl)c4)c(Cl)c3)c21`
Output: YES

Task: Is 30% strictly greater than the compound's reported %Inh? compound: `CN1CCC(n2cnc(-c3ccc(F)cc3)c2-c2ccnc(NC3CCNCC3)n2)CC1`
Output: NO

Task: Is 30% strictly greater than the compound's reported %Inh? compound: `C[C@@H]1CCN(C(=O)CO)C[C@@H]1N(C)c1ncnc2[nH]ccc12`
Output: YES

====

# Tested on: CAMKK2
# measurement.conditions: concentration: 1 μM, replicates: in singlicate; n = 1
Please provide measured %Inh for the entries that follow.

Task: Value lookup for %Inh; key = `Fc1cccc(COc2ccc(Nc3ncnc4nn5ccccc5c34)cc2Cl)c1`
Output: 0%

Task: Value lookup for %Inh; key = `Nc1nc(-c2cccnc2)c(-c2ccnc3ccccc23)s1`
Output: 19%

Task: Value lookup for %Inh; key = `O=c1cc(N2CCOCC2)nc2n(Cc3cccc(Cl)c3)ccn12`
Output: 0%

Task: Value lookup for %Inh; key = `Cn1ccc2ncnc(Nc3ccc(Oc4cccc(Cl)c4)c(Cl)c3)c21`
Output: 9%

Task: Value lookup for %Inh; key = `O=C(CCO)NCCn1ccc2ncnc(Nc3ccc(Oc4cccc(C(F)(F)F)c4)c(Cl)c3)c21`
Output: 7%

Task: Value lookup for %Inh; key = `COc1ccc(NC(=O)c2ccc(-c3cc(-c4nnc(C)o4)ccc3C)cc2)cc1`
Output: 0%

Task: Value lookup for %Inh; key = `CCC(CC)(CC)n1cnc2c(N)ncnc21`
Output: 0%

====

# Test system: PIK4CB
# Construct: gene PI4KB
# measurement.conditions: concentration: 1 μM, replicates: in singlicate; n = 1
property.label: %Inh (%)
Return type: number; implicit unit %.

Task: Value lookup for %Inh; key = `O=C(c1ccc(-c2cc(-c3c[nH]nc3-c3ccccn3)ccn2)cc1)N1CCCC1`
Output: 4

Task: Value lookup for %Inh; key = `CN1c2ccc(-c3ccc(C(=O)NCCO)cc3)cc2-c2[nH]ncc2S1(=O)=O`
Output: 0

Task: Value lookup for %Inh; key = `COC(=O)c1c(-c2ccccc2)c2cc(Cl)ccc2c(=O)n1Cc1ccc(S(C)(=O)=O)cc1`
Output: 46

Task: Value lookup for %Inh; key = `O=c1cc(N2CCOCC2)nc2n(Cc3cccc(Cl)c3)ccn12`
Output: 2

Task: Value lookup for %Inh; key = `Clc1ccc(-c2cc(-c3c[nH]nc3-c3ccccn3)ccn2)cc1`
Output: 4

Task: Value lookup for %Inh; key = `O=C(Nc1ccccc1)Nc1ccc(Oc2ccc3nccn3n2)cc1`
Output: 0

Task: Value lookup for %Inh; key = `O=C(Nc1n[nH]c2nc(-c3ccco3)c(Br)cc12)c1ccc(CN2CCCC2)cc1.O=C(O)[C@H](O)[C@@H](O)C(=O)O`
Output: 40

Task: Value lookup for %Inh; key = `NC(=O)c1sc(-n2cnc3ccccc32)cc1OCc1ccccc1F`
Output: 0

Task: Value lookup for %Inh; key = `Cn1ccc2ncnc(Nc3ccc(Oc4cccc(Cl)c4)c(Cl)c3)c21`
Output: 0

====

# Tested on: LIMK2
# measurement.conditions: concentration: 1 μM, replicates: in singlicate; n = 1
Please provide measured %Inh for the entries that follow.

Task: Value lookup for %Inh; key = `OCCOCCn1ccc2ncnc(Nc3ccc(Oc4cccc(Cl)c4)c(Cl)c3)c21`
Output: 0%

Task: Value lookup for %Inh; key = Fc1cccc(COc2ccc(Nc3ncnc4nn5ccccc5c34)cc2Cl)c1 [GW689066]
Output: 0%

Task: Value lookup for %Inh; key = O=c1cc(N2CCOCC2)nc2n(Cc3cccc(Cl)c3)ccn12 [GSK2296823]
Output: 0%

Task: Value lookup for %Inh; key = Nc1n[nH]c2nnc(-c3ccccc3)cc12 [SB-517389]
Output: 3%

Task: Value lookup for %Inh; key = Cc1ccc(NC(=O)c2cccc(C#N)c2)cc1-c1ccc(C(=O)Nc2ccncc2)cc1 [GSK1398463]
Output: 14%

Task: Value lookup for %Inh; key = CS(=O)(=O)CCNCc1nc(-c2ccc3ncnc(Nc4ccc(OCc5cccc(F)c5)c(Cl)c4)c3c2)cs1.Cl [GW583340]
Output: 3%

Task: Value lookup for %Inh; key = Nc1nccc2scc(-c3ccc4c(c3)CCN4C(=O)Cc3cc(F)ccc3F)c12 [GSK2587663]
Output: 13%

Task: Value lookup for %Inh; key = Cl.Cl.c1ccc(-c2cc3ccncc3cc2OC2CCNCC2)cc1 [GSK1122999]
Output: 34%

Task: Value lookup for %Inh; key = `CCc1nc(-c2cccc(C)c2)c(-c2ccnc(NC(=O)c3ccccc3)c2)s1`
Output: 0%

Task: Value lookup for %Inh; key = `C[C@@H]1CCN(C(=O)CO)C[C@@H]1N(C)c1ncnc2[nH]ccc12`
Output: 8%

Task: Value lookup for %Inh; key = `Fc1cccc(COc2ccc(Nc3ncnc4cc[nH]c34)cc2Cl)c1`
Output: 17%

Task: Value lookup for %Inh; key = Cc1cc(N2CCC(NS(=O)(=O)c3ccc(F)cc3)CC2)nc(Nc2cccc(C#N)c2)n1.O=C(O)C(F)(F)F [GSK1653537]
Output: 0%

====

Please provide measured %Inh for the entries that follow.
# Tested on: VEGFR2
# Construct: gene KDR
# measurement.conditions: concentration: 1 μM, replicates: in singlicate; n = 1
Return type: number; implicit unit %.

Task: Value lookup for %Inh; key = `COC(=O)c1c(-c2ccccc2)c2cc(Cl)ccc2c(=O)n1Cc1ccc(S(C)(=O)=O)cc1`
Output: 0

Task: Value lookup for %Inh; key = `CSc1nn2c(=O)cc(N3CCOCC3)nc2n1Cc1cccc(Cl)c1Cl`
Output: 0

Task: Value lookup for %Inh; key = `COc1ccc(NC(=O)Nc2ccc(C)c(-c3ccc(C(=O)Nc4ccncc4)cc3)c2)cc1`
Output: 0

Task: Value lookup for %Inh; key = `Clc1cc(Nc2ncnc3cc[nH]c23)ccc1OCc1ccccn1`
Output: 6

Task: Value lookup for %Inh; key = COc1ccc(Nc2nccc(N3CCC(NC(=O)Nc4ccc5c(c4)OCO5)C3)n2)cc1 (centres unmarked)
Output: 0

Task: Value lookup for %Inh; key = `Nc1nc(-c2ccccn2)c(-c2ccnc3ccccc23)s1`
Output: 12

Task: Value lookup for %Inh; key = `NC(=O)c1sc(-n2cnc3ccccc32)cc1OCc1ccccc1F`
Output: 6

Task: Value lookup for %Inh; key = `O=C(Nc1n[nH]c2nc(-c3ccco3)c(Br)cc12)c1ccc(CN2CCCC2)cc1.O=C(O)[C@H](O)[C@@H](O)C(=O)O`
Output: 48

====

# System: GRK3
# Construct: gene ADRBK2
# measurement.conditions: concentration: 1 μM, replicates: in singlicate; n = 1
Binary call on %Inh with cut-off 30%: strictly below means 1.0, and equality or higher means 0.0.

Task: Is 30% strictly greater than the compound's reported %Inh? compound: `CS(=O)(=O)CCNCc1ccc(-c2ccc3ncnc(Nc4ccc(OCc5ccccc5)c(Cl)c4)c3c2)o1.Cl`
Output: 1.0

Task: Is 30% strictly greater than the compound's reported %Inh? compound: `CCC(CC)(CC)n1cnc2c(N)ncnc21`
Output: 1.0

Task: Is 30% strictly greater than the compound's reported %Inh? compound: `C[C@H]1CC[C@@H](C(=O)Nc2ccccc2)CN1c1cc(-c2ccc3c(N)n[nH]c3c2)nc(N)n1`
Output: 0.0

Task: Is 30% strictly greater than the compound's reported %Inh? compound: `Nc1nc(-c2ccccn2)c(-c2ccnc3ccccc23)s1`
Output: 0.0

Task: Is 30% strictly greater than the compound's reported %Inh? compound: `Cn1ccc2ncnc(Nc3ccc(Oc4cccc(Cl)c4)c(Cl)c3)c21`
Output: 1.0

Task: Is 30% strictly greater than the compound's reported %Inh? compound: `CSc1nn2c(=O)cc(N3CCOCC3)nc2n1Cc1cccc(Cl)c1Cl`
Output: 1.0

Task: Is 30% strictly greater than the compound's reported %Inh? compound: `CS(=O)(=O)CCNCc1nc(-c2ccc3ncnc(Nc4ccc(OCc5cccc(F)c5)c(Cl)c4)c3c2)cs1.Cl`
Output: 1.0

Task: Is 30% strictly greater than the compound's reported %Inh? compound: `FC(F)(F)c1cc(Nc2nccc(-c3c(-c4ccc(Cl)cc4)nn4ncccc34)n2)ccc1Cl`
Output: 1.0
